Values were extracted from ChEMBL document CHEMBL2401645.

system_tested: Cannabinoid receptor 1/Mu-type opioid receptor (Homo sapiens) (UniProt P21554+P35372)
experimental_protocol: Induction of human MOPR/CB1receptor internalization transiently expressed in HEK293 cells at 1 uM after 30 mins by immunofluorescence assay
Assay type: cell-based
Activity calls are given as the source filed them. The rule behind the calls is not given here.
Hello, when you answer, please use one of the following outcomes: active, inactive

Observe how each entry below is paired with its result.
[
  {
    "smiles_record": "Cc1c(C(=O)NC2CCN(C(=O)COCC(=O)NCCCCCCCNC(=O)COCC(=O)N[C@H]3CC[C@@]4(O)[C@H]5Cc6ccc(O)c7c6[C@@]4(CCN5C)[C@H]3O7)CC2)nn(-c2ccc(Cl)cc2Cl)c1-c1ccc(Cl)cc1",
    "assigned_label": "inactive"
  },
  {
    "smiles_record": "CNC(=O)COCC(=O)NCCCCNC(=O)COCC(=O)N1CCC(NC(=O)c2nn(-c3ccc(Cl)cc3Cl)c(-c3ccc(Cl)cc3)c2C)CC1",
    "assigned_label": "inactive"
  },
  {
    "smiles_record": "Cc1c(C(=O)NC2CCN(C(=O)COCC(=O)N[C@H]3CC[C@@]4(O)[C@H]5Cc6ccc(O)c7c6[C@@]4(CCN5C)[C@H]3O7)CC2)nn(-c2ccc(Cl)cc2Cl)c1-c1ccc(Cl)cc1",
    "assigned_label": "active"
  },
  {
    "smiles_record": "Cc1c(C(=O)NC2CCN(C(=O)COCC(=O)NCCNC(=O)COCC(=O)N[C@H]3CC[C@@]4(O)[C@H]5Cc6ccc(O)c7c6[C@@]4(CCN5C)[C@H]3O7)CC2)nn(-c2ccc(Cl)cc2Cl)c1-c1ccc(Cl)cc1",
    "assigned_label": "active"
  }
]

Prompt line: Tell me the assay call for CNC(=O)COCC(=O)NCCCCCNC(=O)COCC(=O)N[C@H]1CC[C@@]2(O)[C@H]3Cc4ccc(O)c5c4[C@@]2(CCN3C)[C@H]1O5 please.
Response line: active

Prompt line: Tell me the assay call for Cc1c(C(=O)NC2CCN(C(=O)COCC(=O)NCCCCCCNC(=O)COCC(=O)N[C@H]3CC[C@@]4(O)[C@H]5Cc6ccc(O)c7c6[C@@]4(CCN5C)[C@H]3O7)CC2)nn(-c2ccc(Cl)cc2Cl)c1-c1ccc(Cl)cc1 please.
Response line: active
